Data provenance: the supplement of paper PMC8371130

# Test system: HL-1
# Assay text: relative cell viability (CellTiter-Glo) vs DMSO control (% of DMSO control); higher = more viable cells
# Particulars: oxygen condition: hypoxia 48 h (1% O2) + reoxygenation 24 h; 1000 nM
Structures can show the parent of a compound that is named as a salt.
Reported values of relative cell viability for individual entries
Endpoint name: relative cell viability

compound="CCOC(=O)OC(C)OC1=C(C(=O)Nc2ccccn2)N(C)S(=O)(=O)c2ccccc21 (stereo not drawn) [Ampiroxicam]" observed_result=104
compound="CCCc1nc(C(C)(C)O)c(C(=O)OCc2oc(=O)oc2C)n1Cc1ccc(-c2ccccc2-c2nnn[nH]2)cc1 [Olmesartan medoxomil]" observed_result=94.7
compound="CCN(CC)CC#CCOC(=O)C(O)(c1ccccc1)C1CCCCC1 (stereo not drawn) [Oxybutynin chloride]" observed_result=98.7
compound="O=C(NCCO[N+](=O)[O-])c1cccnc1 [Nicorandil]" observed_result=108
compound="COc1cc2nc(N(C)CCCNC(=O)C3CCCO3)nc(N)c2cc1OC (stereo not drawn) [Alfuzosin hydrochloride]" observed_result=99.9
compound="C[C@H]1O[C@H](O[C@H]2[C@H](O)[C@@H](O)[C@@H](O[C@H]3[C@H](O)[C@@H](O)C(O)O[C@@H]3CO)O[C@@H]2CO)[C@H](O)[C@@H](O)[C@@H]1N[C@H]1C=C(CO)[C@@H](O)[C@H](O)[C@H]1O (stereo partly drawn) [Acarbose]" observed_result=108
compound="O=P(O)(O)C(Cl)(Cl)P(=O)(O)O [Clodronate Disodium]" observed_result=114
compound="CNC[C@H](O)c1cccc(O)c1 [Phenylephrine HCl]" observed_result=102
compound="CN(C)CCC(c1ccccc1)c1ccccn1 (stereo not drawn) [Pheniramine Maleate]" observed_result=104
compound="C=C(c1ccc(C(=O)O)cc1)c1cc2c(cc1C)C(C)(C)CCC2(C)C [Bexarotene]" observed_result=109
compound="Cc1c(-c2ccccc2)oc2c(C(=O)OCCN3CCCCC3)cccc2c1=O [Flavoxate HCl]" observed_result=108
compound="N=C(N)N/N=C/c1c(Cl)cccc1Cl [Guanabenz acetate]" observed_result=105
compound="COc1cc(C(C)=O)ccc1OCCCN1CCC(c2noc3cc(F)ccc23)CC1 [Iloperidone]" observed_result=107
compound="CN1CCCC(n2nc(Cc3ccc(Cl)cc3)c3ccccc3c2=O)CC1 (stereo not drawn) [Azelastine hydrochloride]" observed_result=101
compound="COc1ccc(CC(C)NCC(O)c2ccc(O)c(NC=O)c2)cc1 (stereo not drawn) [Formoterol hemifumarate]" observed_result=102
compound="CCOC(=O)[C@H](CCc1ccccc1)N[C@H]1CS[C@H](c2cccs2)CN(CC(=O)O)C1=O [Temocapril HCl]" observed_result=104
compound="O=C1NC(=O)C(c2ccccc2)(c2ccccc2)N1 [Phenytoin]" observed_result=98.1
compound="CC(=O)Oc1ccc(C(c2ccc(OC(C)=O)cc2)c2ccccn2)cc1 [Bisacodyl]" observed_result=109
compound="CNCCC(Oc1ccc(C(F)(F)F)cc1)c1ccccc1 (stereo not drawn) [Fluoxetine HCl]" observed_result=114
compound="O=C1Cc2cc(CCN3CCN(c4nsc5ccccc45)CC3)c(Cl)cc2N1 [Ziprasidone hydrochloride]" observed_result=106
compound="COC(=O)[C@H](Cc1ccccc1)NC(=O)[C@@H](N)CC(=O)O [Aspartame]" observed_result=103
compound="COc1cc([C@@H]2c3cc4c(cc3[C@@H](O[C@@H]3O[C@@H]5CO[C@@H](c6cccs6)O[C@H]5[C@H](O)[C@H]3O)[C@H]3COC(=O)[C@H]23)OCO4)cc(OC)c1O [Teniposide]" observed_result=98.2
compound="CC(=O)OCC(=O)[C@@]12N=C(C)O[C@@H]1C[C@H]1[C@@H]3CCC4=CC(=O)C=C[C@]4(C)[C@H]3[C@@H](O)C[C@@]12C [Deflazacort]" observed_result=97.1

----------
# System: HL-1
# Assay text: relative cell viability (CellTiter-Glo) vs DMSO control (% of DMSO control); higher = more viable cells
# Particulars: oxygen condition: normoxia 72 h; 40 nM
Counter-ions that a name gives are not always drawn.
Reported values of relative cell viability for individual entries
Endpoint name: relative cell viability

compound="O=C(O)c1ccc(NC(=O)[C@H](Cc2ccc(O)cc2)NC(=O)c2ccccc2)cc1 [Bentiromide]" endpoint_name="relative cell viability" observed_result=103
compound=Cc1c(O)c(=O)ccn1C endpoint_name="relative cell viability" observed_result=100
compound="N=C(N)NC(=O)c1nc(Cl)c(N)nc1N [Amiloride hydrochloride dihydrate]" endpoint_name="relative cell viability" observed_result=101
compound="CN(C)CCCN1c2ccccc2Sc2ccc(C(F)(F)F)cc21 [Triflupromazine HCl]" endpoint_name="relative cell viability" observed_result=102

----------
# Tested on: HL-1
# Assay text: relative cell viability (CellTiter-Glo) vs DMSO control (% of DMSO control); higher = more viable cells
# Particulars: oxygen condition: hypoxia 48 h (1% O2) + reoxygenation 24 h; 1000 nM
Where a name gives a salt, the structure may show the parent alone.
Endpoint name: relative cell viability

molecule="CCC(CC)[C@H](NC(C)=O)[C@@H]1[C@H](O)[C@@H](C(=O)O)C[C@H]1NC(=N)N [Peramivir Trihydrate]" observed_result=107
molecule="CCCc1nn(C)c2c(=O)[nH]c(-c3cc(S(=O)(=O)N4CCN(C)CC4)ccc3OCC)nc12 [Sildenafil citrate]" observed_result=105
molecule="COC(=O)C1=C(C)NC(C)=C(C(=O)OC(C)C)C1c1cccc2nonc12 (stereo not given)" observed_result=106
molecule=C[C@@H](O)[C@H]1C(=O)N2C(C(=O)OCOC(=O)C(C)(C)C)=C(SC3CN(C4=NCCS4)C3)[C@H](C)[C@H]12 observed_result=99.2
molecule="Nc1nc(=O)c2c([nH]1)NCC(CNc1ccc(C(=O)N[C@@H](CCC(=O)O)C(=O)O)cc1)N2C=O (stereo not given in full)" observed_result=110
molecule="NCCc1c[nH]cn1 [Histamine Phosphate]" observed_result=96.7
molecule=CC/C(=C(/CC)c1ccc(O)cc1)c1ccc(O)cc1 observed_result=107
molecule="CC(=O)OCC(=O)[C@H]1CC[C@H]2[C@@H]3CCC4=CC(=O)CC[C@]4(C)[C@H]3CC[C@]12C [Deoxycorticosterone acetate]" observed_result=101
molecule=Nc1ccn([C@@H]2O[C@H](CO)[C@@H](O)[C@H]2O)c(=O)n1 observed_result=105
molecule=Cc1[nH]c(=O)c(C#N)cc1-c1ccncc1 observed_result=105

----------
# Test system: HL-1
# Assay text: relative cell viability (CellTiter-Glo) vs DMSO control (% of DMSO control); higher = more viable cells
# Particulars: oxygen condition: normoxia 72 h; 5000 nM
Counter-ions that a name gives are not always drawn.
Reported values of relative cell viability for individual entries
Endpoint name: relative cell viability

compound="CC(=O)O[C@H]1C[C@@H]2CC[C@@H]3[C@H](CC[C@@]4(C)[C@H]3C[C@H]([N+]3(C)CCCCC3)[C@@H]4OC(C)=O)[C@@]2(C)C[C@@H]1N1CCCCC1 [Vecuronium Bromide]" observed_result=124
compound="C=CC[N+]1([C@H]2C[C@H]3[C@@H]4CC[C@H]5C[C@H](O)[C@@H](N6CCOCC6)C[C@]5(C)[C@H]4CC[C@]3(C)[C@H]2OC(C)=O)CCCC1 [Rocuronium bromide]" observed_result=107
compound="COc1ccc(C[C@@H]2c3cc(OC)c(OC)cc3CC[N@+]2(C)CCC(=O)OCCCCCOC(=O)CC[N@@+]2(C)CCc3cc(OC)c(OC)cc3[C@H]2Cc2ccc(OC)c(OC)c2)cc1OC [Cisatracurium besylate]" observed_result=128
compound="CCCN(CCC)CCc1cccc2c1CC(=O)N2 [Ropinirole HCl]" observed_result=110
compound="COc1ccccc1OCC(O)COC(N)=O (configuration not stated)" observed_result=114
compound=CS(=O)(=O)c1ccc(C2=C(c3ccccc3)C(=O)OC2)cc1 observed_result=109
compound="COC(=O)N[C@H](C(=O)N[C@@H](Cc1ccccc1)[C@@H](O)CN(Cc1ccc(-c2ccccn2)cc1)NC(=O)[C@@H](NC(=O)OC)C(C)(C)C)C(C)(C)C [Atazanavir sulfate]" observed_result=116
compound=Cc1cn([C@H]2C[C@H](N=[N+]=[N-])[C@@H](CO)O2)c(=O)[nH]c1=O observed_result=109
compound=NCCCC[C@H](N[C@@H](CCc1ccccc1)C(=O)O)C(=O)N1CCC[C@H]1C(=O)O observed_result=108
compound=COc1nc(N)nc2c1ncn2[C@@H]1O[C@H](CO)[C@@H](O)[C@@H]1O observed_result=111
compound=Cc1c(OCC(F)(F)F)ccnc1C[S@@+]([O-])c1nc2ccccc2[nH]1 observed_result=91.9
compound="NC(=O)N1c2ccccc2C=Cc2ccccc21 [Carbamazepine]" observed_result=109
compound=CC1=NN(c2ccc(C)c(C)c2)C(=O)/C1=N\Nc1cccc(-c2cccc(C(=O)O)c2)c1O observed_result=108
compound=O=C(O)C1(C(=O)O)CCC1.[NH2-].[NH2-].[Pt+2] observed_result=119
compound="CCOC(=O)C1=C[C@@H](OC(CC)CC)[C@H](NC(C)=O)[C@@H](N)C1 [Oseltamivir phosphate]" observed_result=111
compound="Cc1cnc(C(=O)NCCc2ccc(S(=O)(=O)NC(=O)NC3CCCCC3)cc2)cn1 [Glipizide]" observed_result=110
compound="C[C@@H](CN1CC(=O)NC(=O)C1)N1CC(=O)NC(=O)C1 [Dexrazoxane Hydrochloride]" observed_result=94.8
compound=CCOC(=O)C1=C(C)NC(C)=C(C(=O)OCC)C1c1ccccc1/C=C/C(=O)OC(C)(C)C observed_result=106
compound="CC/C(=C(\\c1ccccc1)c1ccc(OCCN(C)C)cc1)c1ccccc1 [Tamoxifen Citrate]" observed_result=103
compound=CCOc1nc2cccc(C(=O)OCc3oc(=O)oc3C)c2n1Cc1ccc(-c2ccccc2-c2noc(=O)[nH]2)cc1 observed_result=114
compound=Cc1nc(Nc2ncc(C(=O)Nc3c(C)cccc3Cl)s2)cc(N2CCN(CCO)CC2)n1 observed_result=89.2
compound="C#C[C@]1(OC(C)=O)CC[C@H]2[C@@H]3CCC4=C[C@@H](OC(C)=O)CC[C@@H]4[C@H]3CC[C@@]21C [Ethynodiol diacetate]" observed_result=116
compound=CC1=CC(=O)c2ccccc2C1=O observed_result=106
compound="CCCNC(C)C(=O)Nc1c(C)csc1C(=O)OC (configuration not stated) [Articaine HCl]" observed_result=107
compound="COC(=O)C1=C(C)NC(C)=C(C(=O)OC(C)C)C1c1cccc2nonc12 (configuration not stated)" observed_result=110
compound=Cc1nc2n(c(=O)c1CCN1CCC(c3noc4cc(F)ccc34)CC1)CCCC2 observed_result=114
compound="COc1ccc([C@@H]2Sc3ccccc3N(CCN(C)C)C(=O)[C@@H]2OC(C)=O)cc1 [Diltiazem HCl]" observed_result=113
